Provenance of the data: paper PMC5688999

Target: T1, Mtr4-ΔN (helicase region of Mtr4, residues 81–1073) (S. cerevisiae, UniProt P47047 81-1073)
T1 sequence (looked up): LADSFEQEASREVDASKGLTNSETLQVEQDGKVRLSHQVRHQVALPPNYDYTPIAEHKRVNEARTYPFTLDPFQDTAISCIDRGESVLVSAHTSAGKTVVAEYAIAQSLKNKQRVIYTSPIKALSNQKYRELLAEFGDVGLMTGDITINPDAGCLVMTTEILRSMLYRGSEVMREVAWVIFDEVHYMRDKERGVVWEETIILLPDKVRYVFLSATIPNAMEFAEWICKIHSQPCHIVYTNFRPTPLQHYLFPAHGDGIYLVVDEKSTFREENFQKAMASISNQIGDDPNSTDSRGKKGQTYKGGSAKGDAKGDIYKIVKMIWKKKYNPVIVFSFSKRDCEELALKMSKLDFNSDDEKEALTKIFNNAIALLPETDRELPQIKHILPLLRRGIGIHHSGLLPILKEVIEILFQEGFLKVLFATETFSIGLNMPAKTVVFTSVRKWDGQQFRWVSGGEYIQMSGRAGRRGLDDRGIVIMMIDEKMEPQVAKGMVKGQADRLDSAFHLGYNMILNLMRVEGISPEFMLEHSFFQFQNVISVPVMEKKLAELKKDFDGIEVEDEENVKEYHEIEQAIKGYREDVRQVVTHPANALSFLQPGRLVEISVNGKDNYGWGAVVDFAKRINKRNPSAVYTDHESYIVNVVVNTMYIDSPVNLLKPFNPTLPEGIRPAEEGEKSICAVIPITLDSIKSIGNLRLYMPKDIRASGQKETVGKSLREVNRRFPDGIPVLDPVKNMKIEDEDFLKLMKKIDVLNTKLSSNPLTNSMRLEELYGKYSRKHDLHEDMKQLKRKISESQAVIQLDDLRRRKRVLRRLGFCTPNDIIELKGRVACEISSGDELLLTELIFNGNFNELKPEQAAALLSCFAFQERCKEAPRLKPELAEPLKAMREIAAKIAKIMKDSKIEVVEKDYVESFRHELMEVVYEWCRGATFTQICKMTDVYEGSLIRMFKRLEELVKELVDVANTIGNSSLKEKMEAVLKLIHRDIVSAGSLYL
Test: ITC
Overview of recorded Kd for various binders

Look at this binder and give its reported Kd. DALFHVDVEGDEILKNKLIKRKQIKKVLKSKEIL (domain or fragment, S. cerevisiae, UniProt Q12080 58-91, looked up) [Nop53_(prot) (Nop53 residues 58–91)] ~18 µM

Here is the next item to consider.
Look at this binder and give its reported Kd. HVNNDQLFFVDDGGNEDSQDKNEDTMDVDDEDD (domain or fragment, S. cerevisiae, UniProt P40362 78-110, looked up) [Utp18_(prot) (Utp18 residues 78–110)] ~20 µM
